All values here come from ChEMBL document CHEMBL4390647.

Measured inhibition at 120 h, 50 ug/mL accompanies every entry in the list below.
- assayName: Cytotoxicity against mouse RAW264.7 cells assessed as growth inhibition at 50 ug/mL after 120 hrs by MTT assay relative to control
- Assay type: cell-based
- experimentalSetup: read-out: GI

molecule	unitOfMeasurement	inhibition at 120 h, 50 ug/mL
COc1cccc(C2C(C#N)=C(N)Oc3cc(OCc4cn([C@@H]5O[C@H](COC(C)=O)[C@@H](OC(C)=O)[C@H](OC(C)=O)[C@H]5OC(C)=O)nn4)ccc32)c1 (stereo not given in full)	%	25.1
CC(=O)OC[C@H]1O[C@@H](n2cc(COc3ccc4c(c3)OC(N)=C(C#N)C4c3cccc(Cl)c3)nn2)[C@H](OC(C)=O)[C@@H](OC(C)=O)[C@@H]1OC(C)=O (stereo not given in full)	%	17.2
CC(=O)OC[C@H]1O[C@@H](n2cc(COc3ccc4c(c3)OC(N)=C(C#N)C4c3ccc(Br)cc3)nn2)[C@H](OC(C)=O)[C@@H](OC(C)=O)[C@@H]1OC(C)=O (stereo not given in full)	%	25.3
COc1ccccc1C1C(C#N)=C(N)Oc2cc(OCc3cn([C@@H]4O[C@H](COC(C)=O)[C@@H](OC(C)=O)[C@H](OC(C)=O)[C@H]4OC(C)=O)nn3)ccc21 (stereo not given in full)	%	22.1
CC(=O)OC[C@H]1O[C@@H](n2cc(COc3ccc4c(c3)OC(N)=C(C#N)C4c3ccc([N+](=O)[O-])cc3)nn2)[C@H](OC(C)=O)[C@@H](OC(C)=O)[C@@H]1OC(C)=O (stereo not given in full)	%	27.6
CC(=O)OC[C@H]1O[C@@H](n2cc(COc3ccc4c(c3)OC(N)=C(C#N)C4c3ccc(C)cc3)nn2)[C@H](OC(C)=O)[C@@H](OC(C)=O)[C@@H]1OC(C)=O (stereo not given in full)	%	19.6
CC(=O)OC[C@H]1O[C@@H](n2cc(COc3ccc4c(c3)OC(N)=C(C#N)C4c3cccc(Cl)c3Cl)nn2)[C@H](OC(C)=O)[C@@H](OC(C)=O)[C@@H]1OC(C)=O (stereo not given in full)	%	23.8
COc1cccc(C2C(C#N)=C(N)Oc3cc(OCc4cn([C@@H]5O[C@H](COC(C)=O)[C@@H](OC(C)=O)[C@H](OC(C)=O)[C@H]5OC(C)=O)nn4)ccc32)c1OC (stereo not given in full)	%	31.1
CC(=O)OC[C@H]1O[C@@H](n2cc(COc3ccc4c(c3)OC(N)=C(C#N)C4c3ccc(N(C)C)cc3)nn2)[C@H](OC(C)=O)[C@@H](OC(C)=O)[C@@H]1OC(C)=O (stereo not given in full)	%	19.6
COc1ccc(C2C(C#N)=C(N)Oc3cc(OCc4cn([C@@H]5O[C@H](COC(C)=O)[C@@H](OC(C)=O)[C@H](OC(C)=O)[C@H]5OC(C)=O)nn4)ccc32)c(OC)c1 (stereo not given in full)	%	12.4
COc1ccc(C2C(C#N)=C(N)Oc3cc(OCc4cn([C@@H]5O[C@H](COC(C)=O)[C@@H](OC(C)=O)[C@H](OC(C)=O)[C@H]5OC(C)=O)nn4)ccc32)cc1OC (stereo not given in full)	%	21.9
COc1ccc(C2C(C#N)=C(N)Oc3cc(OCc4cn([C@@H]5O[C@H](COC(C)=O)[C@@H](OC(C)=O)[C@H](OC(C)=O)[C@H]5OC(C)=O)nn4)ccc32)cc1 (stereo not given in full)	%	29.6
CC(=O)OC[C@H]1O[C@@H](n2cc(COc3ccc4c(c3)OC(N)=C(C#N)C4c3ccccc3)nn2)[C@H](OC(C)=O)[C@@H](OC(C)=O)[C@@H]1OC(C)=O (stereo not given in full)	%	22.9
CC(=O)OC[C@H]1O[C@@H](n2cc(COc3ccc4c(c3)OC(N)=C(C#N)C4c3ccc(Cl)cc3Cl)nn2)[C@H](OC(C)=O)[C@@H](OC(C)=O)[C@@H]1OC(C)=O (stereo not given in full)	%	18.1
CC(=O)OC[C@H]1O[C@@H](n2cc(COc3ccc4c(c3)OC(N)=C(C#N)C4c3ccccc3[N+](=O)[O-])nn2)[C@H](OC(C)=O)[C@@H](OC(C)=O)[C@@H]1OC(C)=O (stereo not given in full)	%	15.4
CC(=O)OC[C@H]1O[C@@H](n2cc(COc3ccc4c(c3)OC(N)=C(C#N)C4c3ccc(C(C)C)cc3)nn2)[C@H](OC(C)=O)[C@@H](OC(C)=O)[C@@H]1OC(C)=O (stereo not given in full)	%	17.9
CC(=O)OC[C@H]1O[C@@H](n2cc(COc3ccc4c(c3)OC(N)=C(C#N)C4c3ccc(Cl)cc3)nn2)[C@H](OC(C)=O)[C@@H](OC(C)=O)[C@@H]1OC(C)=O (stereo not given in full)	%	25.1
CC(=O)OC[C@H]1O[C@@H](n2cc(COc3ccc4c(c3)OC(N)=C(C#N)C4c3cccc([N+](=O)[O-])c3)nn2)[C@H](OC(C)=O)[C@@H](OC(C)=O)[C@@H]1OC(C)=O (stereo not given in full)	%	15.6
COc1cc(OC)cc(C2C(C#N)=C(N)Oc3cc(OCc4cn([C@@H]5O[C@H](COC(C)=O)[C@@H](OC(C)=O)[C@H](OC(C)=O)[C@H]5OC(C)=O)nn4)ccc32)c1 (stereo not given in full)	%	19.5
CC(=O)OC[C@H]1O[C@@H](n2cc(COc3ccc4c(c3)OC(N)=C(C#N)C4c3ccccc3Cl)nn2)[C@H](OC(C)=O)[C@@H](OC(C)=O)[C@@H]1OC(C)=O (stereo not given in full)	%	21.1
